Test system: Saccharomyces cerevisiae
Test: protein stability index of tFT-peptide fusion (C-terminal peptide) (PSI (0-1 scale)); higher = more stable (slower turnover)
Conditions: genetic background: das1 deletion; temperature: 30 C
quantity kind: protein stability index
Simply state the number, no unit and no words.

[
  {
    "seq text": "NIATIASERSRP [YPL102C C-terminal 12 aa]",
    "quantity kind": "protein stability index",
    "number": 0.723
  }
]

For reference, reported protein stability index for DKITAELILNKI [EMC2 C-terminal 12 aa] stands at 0.687

For reference, reported protein stability index for VLSFNPKVWLLV [YAR068W C-terminal 12 aa] stands at 0.562

For reference, reported protein stability index for NEEMIRKLKAAK [JID1 C-terminal 12 aa] stands at 0.674

For reference, reported protein stability index for SFNEVVKEVQAL [NHP2 C-terminal 12 aa] stands at 0.687

For reference, reported protein stability index for GNLRDTLIETYS [TIF6 C-terminal 12 aa] stands at 0.656

* * *

Test system: Saccharomyces cerevisiae
Assay: protein stability index of tFT-peptide fusion (C-terminal peptide) (PSI (0-1 scale)); higher = more stable (slower turnover)
Conditions: genetic background: wild type; temperature: 30 C
quantity kind: protein stability index
Simply state the number, no unit and no words.

[
  {
    "seq text": "AGRAVAAAVRED",
    "protein stability index": 0.728
  },
  {
    "seq text": "LPCPPSPASLPR",
    "protein stability index": 0.498
  },
  {
    "seq text": "GVGVWWRGVIMG",
    "protein stability index": 0.615
  },
  {
    "seq text": "TLLAFLIYLCFL",
    "protein stability index": 0.416
  },
  {
    "seq text": "SADILGLPRYLT",
    "protein stability index": 0.656
  },
  {
    "seq text": "SPLPPPSLPRPP",
    "protein stability index": 0.641
  }
]

Kindly consider the entry below.
The observed protein stability index for "VFVFLFVFLFLL" when tested with Saccharomyces cerevisiae stands at 0.177

* * *

Test system: Saccharomyces cerevisiae
Assay: protein stability index of tFT-peptide fusion (C-terminal peptide) (PSI (0-1 scale)); higher = more stable (slower turnover)
Conditions: genetic background: wild type; temperature: 30 C
Kindly note that classification relies on protein stability index with these boundaries: bottom bin: < 0.6; middle bin: ≥ 0.6 and < 0.7; top bin: ≥ 0.7

[
  {
    "seq text": "ERHTASGHLLFV",
    "category": "top bin"
  },
  {
    "seq text": "WIIRATCAGVSL",
    "category": "bottom bin"
  },
  {
    "seq text": "AFLFLFSITCIV",
    "category": "bottom bin"
  },
  {
    "seq text": "CSLLFSLNLMPS",
    "category": "middle bin"
  },
  {
    "seq text": "IQDVGLKRLARV",
    "category": "middle bin"
  }
]

Input line: Band for "LLPPPPPPSTPT" ?
Output line: top bin

Input line: Band for "PLPPPPPPPPLP" ?
Output line: top bin

* * *

Tested on: Saccharomyces cerevisiae
Test: protein stability index of tFT-peptide fusion in wild type (PSI (0-1 scale)); higher = more stable (slower turnover)
Conditions: genetic background: wild type
quantity kind: protein stability index
Simply state the number, no unit and no words.

These recorded examples may help you get a feel for the data.
[
  {
    "seq text": "RLIQPLPQQFLN",
    "protein stability index": 0.0631
  },
  {
    "seq text": "KKHQKGQKQKIN",
    "protein stability index": 0.0868
  }
]

The observed protein stability index for "LVVGLSCVACIN" when tested with Saccharomyces cerevisiae stands at 0.159

The observed protein stability index for "FSMRWTFRYWVNK" when tested with Saccharomyces cerevisiae stands at 0.522

The observed protein stability index for "RSLTVLLPLYFR" when tested with Saccharomyces cerevisiae stands at 0.24

The observed protein stability index for "PSLAASFWRVVGS" when tested with Saccharomyces cerevisiae stands at 0.234

The observed protein stability index for "WLIQPLPVQFLN" when tested with Saccharomyces cerevisiae stands at 0.0761

The observed protein stability index for "VRGAVGGWRLVY" when tested with Saccharomyces cerevisiae stands at 0.654

The observed protein stability index for "AITLTMCPLLLR" when tested with Saccharomyces cerevisiae stands at 0.386

The observed protein stability index for "PSLAMSFWRVVG" when tested with Saccharomyces cerevisiae stands at 0.146

* * *

System: Saccharomyces cerevisiae
Assay: protein stability index of tFT-peptide fusion (C-terminal peptide) (PSI (0-1 scale)); higher = more stable (slower turnover)
Details: genetic background: wild type; temperature: 30 C
quantity kind: protein stability index
Simply state the number, no unit and no words.

These recorded examples may help you get a feel for the data.
[
  {
    "seq text": "FPSLLFALFLFI",
    "number": 0.415
  },
  {
    "seq text": "VYVVLGTVYVTY",
    "number": 0.187
  },
  {
    "seq text": "WVVVLFAYRGLR",
    "number": 0.379
  },
  {
    "seq text": "TIYGYEVTRKIG",
    "number": 0.11
  },
  {
    "seq text": "NFFLLFFFFLSF",
    "number": 0.41
  },
  {
    "seq text": "NCMGLLMPLLIT",
    "number": 0.254
  }
]

Kindly consider the entry below.
For reference, reported protein stability index for "SRRRRLVSKFLA" stands at 0.161

* * *

Test system: Saccharomyces cerevisiae
Assay: protein stability index of tFT-peptide fusion (C-terminal peptide) (PSI (0-1 scale)); higher = more stable (slower turnover)
Settings: genetic background: wild type; temperature: 37 C
Kindly note that classification relies on protein stability index with these boundaries: low interval: < 0.3; middle interval: ≥ 0.3 and < 0.5; high interval: ≥ 0.5

Recorded results for 3 sequences are shown here.
[
  {
    "seq text": "VILYCSNVAVCS",
    "category": "middle interval"
  },
  {
    "seq text": "ACVRFPLVLVVF",
    "category": "low interval"
  },
  {
    "seq text": "FMCFVLPVFVLV",
    "category": "middle interval"
  }
]

Input line: Band for "CLFSVLFPLFFR" ?
Output line: low interval

Input line: Band for "LAGVVWVVWCVG" ?
Output line: middle interval

Input line: Band for "YVGILCTGILTV" ?
Output line: high interval

Input line: Band for "PSRLSFALLFHL" ?
Output line: high interval

Input line: Band for "CSLFFFRLIFTL" ?
Output line: low interval

Input line: Band for "FPVSSRSFSFIP" ?
Output line: high interval

Input line: Band for "ICIFWLITGLWL" ?
Output line: middle interval

Input line: Band for "PYPSVIFFLHVY" ?
Output line: low interval

Input line: Band for "FVLFCWFFCIVW" ?
Output line: middle interval

Input line: Band for "MALAVRVVICGA" ?
Output line: low interval

Input line: Band for "VWFCCLFFCFFV" ?
Output line: middle interval

Input line: Band for "VICVVLSKVFLF" ?
Output line: middle interval

Input line: Band for "VGCHISAFSDLI" ?
Output line: high interval

* * *

Tested on: Saccharomyces cerevisiae
Assay: protein stability index of tFT-peptide fusion (C-terminal peptide) (PSI (0-1 scale)); higher = more stable (slower turnover)
Conditions: genetic background: doa10 deletion; temperature: 30 C
quantity kind: protein stability index
Simply state the number, no unit and no words.

[
  {
    "seq text": "DFWCIIVIFLFR",
    "target of assay": "Saccharomyces cerevisiae",
    "quantity kind": "protein stability index",
    "number": 0.225
  },
  {
    "seq text": "VLVVVAFVALPR",
    "target of assay": "Saccharomyces cerevisiae",
    "quantity kind": "protein stability index",
    "number": 0.275
  },
  {
    "seq text": "EFVACFRLLVHG",
    "target of assay": "Saccharomyces cerevisiae",
    "quantity kind": "protein stability index",
    "number": 0.232
  },
  {
    "seq text": "LFFFLVWSLSVF",
    "target of assay": "Saccharomyces cerevisiae",
    "quantity kind": "protein stability index",
    "number": 0.0187
  },
  {
    "seq text": "FFSGSVFMAVSL",
    "target of assay": "Saccharomyces cerevisiae",
    "quantity kind": "protein stability index",
    "number": 0.467
  },
  {
    "seq text": "PSRLSFALLFHL",
    "target of assay": "Saccharomyces cerevisiae",
    "quantity kind": "protein stability index",
    "number": 0.395
  },
  {
    "seq text": "LFPLLCLLLPSL",
    "target of assay": "Saccharomyces cerevisiae",
    "quantity kind": "protein stability index",
    "number": 0.521
  },
  {
    "seq text": "LFDYEAGEVMGG",
    "target of assay": "Saccharomyces cerevisiae",
    "quantity kind": "protein stability index",
    "number": 0.656
  },
  {
    "seq text": "ALHGTVRNWQRQ",
    "target of assay": "Saccharomyces cerevisiae",
    "quantity kind": "protein stability index",
    "number": 0.191
  },
  {
    "seq text": "TIYGYEVTRKIG",
    "target of assay": "Saccharomyces cerevisiae",
    "quantity kind": "protein stability index",
    "number": 0.0795
  }
]

For reference, reported protein stability index for "SLAPPPPLLILR" stands at 0.605

For reference, reported protein stability index for "ISSAGHNIRFLA" stands at 0.107

For reference, reported protein stability index for "VVFWWGHLLVSA" stands at 0.0877

For reference, reported protein stability index for "PYPSVIFFLHVY" stands at 0.159
